Origin of values: PubChem BioAssay AID2060611

# Tested on: 628569-122-R-J1-PDC complex spheroid viability
# assay overview: Anticancer human tumor 628569-122-R-J1-PDC patient-derived head and neck squamous carcinoma cell line growth inhibition [CLK]
# condition set: second compound 0.316 µM; first compound 0.316 µM; stronger effect = lower value
Give viability, T/C for every item shown.

Noted for CCCS(=O)(=O)Nc1ccc(F)c(C(=O)c2c[nH]c3ncc(-c4ccc(Cl)cc4)cc23)c1F + CNC(=O)c1ccc(Nc2nc(OC3CCCC3)c3c(-c4ccc5nc(C)oc5c4)c[nH]c3n2)c(OC)c1 : its viability, T/C reads 49.7%

Noted for Nc1ccccc1NC(=O)c1ccc(CNC(=O)OCc2cccnc2)cc1 + CN1CCN(c2cc(C(=O)Nc3cc4cc(-c5cnn(C)c5)ccc4cn3)ccn2)CC1 : its viability, T/C reads 37.5%

Noted for CC(Nc1ccc2c(c1)OCCn1cc(N3C(=O)OCC3C(F)F)nc1-2)C(N)=O (stereo unspecified) + CN1CCN(c2cc(C(=O)Nc3cc4cc(-c5cnn(C)c5)ccc4cn3)ccn2)CC1 : its viability, T/C reads 13.6%

Noted for COc1ccc([C@@H](O)c2cc(-c3ncnc4cc(N5CCOCC5)ccc34)c(F)cc2Cl)nn1 + CN1CCN(c2cc(C(=O)Nc3cc4cc(-c5cnn(C)c5)ccc4cn3)ccn2)CC1 : its viability, T/C reads 21.3%

Noted for O=c1[nH]cc(F)c(=O)[nH]1 + CNC(=O)c1ccc(Nc2nc(OC3CCCC3)c3c(-c4ccc5nc(C)oc5c4)c[nH]c3n2)c(OC)c1 : its viability, T/C reads 52.4%

Noted for CC(=O)O[C@H]1C(=O)[C@@]2(C)[C@H]([C@H](OC(=O)c3ccccc3)[C@]3(O)C[C@H](OC(=O)[C@H](O)[C@@H](NC(=O)c4ccccc4)c4ccccc4)C(C)=C1C3(C)C)[C@]1(OC(C)=O)CO[C@@H]1C[C@@H]2O + CN1CCN(c2cc(C(=O)Nc3cc4cc(-c5cnn(C)c5)ccc4cn3)ccn2)CC1 : its viability, T/C reads 41.7%

----------
# System: 628569-122-R-J1-PDC complex spheroid viability
# assay overview: Anticancer human tumor 628569-122-R-J1-PDC cell line growth inhibition [CLK];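 also: spheroids exposed to agents for seven days before readout; 100% = DMSO vehicle control viability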
# condition set: second compound 0.0316 µM; first compound 0.00316 µM; stronger effect = lower value
Give viability, T/C for every item shown.
State just the number; it will be interpreted in %.

Noted for Cn1ncnc1[C@H]1c2n[nH]c(=O)c3cc(F)cc(c23)N[C@@H]1c1ccc(F)cc1 + CN1CCN(c2cc(C(=O)Nc3cc4cc(-c5cnn(C)c5)ccc4cn3)ccn2)CC1 : its viability, T/C reads 89.9

Noted for CCN1CCN(Cc2ccc(Nc3ncc(F)c(-c4cc(F)c5nc(C)n(C(C)C)c5c4)n3)nc2)CC1 + CN1CCN(c2cc(C(=O)Nc3cc4cc(-c5cnn(C)c5)ccc4cn3)ccn2)CC1 : its viability, T/C reads 91.4

Noted for COc1c(OCCCN2CCOCC2)ccc2c3n(c(=NC(=O)c4cnc(N)nc4)nc12)CCN3 + CN1CCN(c2cc(C(=O)Nc3cc4cc(-c5cnn(C)c5)ccc4cn3)ccn2)CC1 : its viability, T/C reads 77

Noted for CCc1c2c(nc3ccc(O)cc13)-c1cc3c(c(=O)n1C2)COC(=O)[C@]3(O)CC + CN1CCN(c2cc(C(=O)Nc3cc4cc(-c5cnn(C)c5)ccc4cn3)ccn2)CC1 : its viability, T/C reads 61.5

Noted for CCN1CCN(Cc2ccc(Nc3ncc(F)c(-c4cc(F)c5nc(C)n(C(C)C)c5c4)n3)nc2)CC1 + CNC(=O)c1ccc(Nc2nc(OC3CCCC3)c3c(-c4ccc5nc(C)oc5c4)c[nH]c3n2)c(OC)c1 : its viability, T/C reads 81.5

Noted for Cn1ncnc1[C@H]1c2n[nH]c(=O)c3cc(F)cc(c23)N[C@@H]1c1ccc(F)cc1 + CNC(=O)c1ccc(Nc2nc(OC3CCCC3)c3c(-c4ccc5nc(C)oc5c4)c[nH]c3n2)c(OC)c1 : its viability, T/C reads 82.7

Noted for CCc1c2c(nc3ccc(O)cc13)-c1cc3c(c(=O)n1C2)COC(=O)[C@]3(O)CC + CNC(=O)c1ccc(Nc2nc(OC3CCCC3)c3c(-c4ccc5nc(C)oc5c4)c[nH]c3n2)c(OC)c1 : its viability, T/C reads 62.2

Noted for COc1c(OCCCN2CCOCC2)ccc2c3n(c(=NC(=O)c4cnc(N)nc4)nc12)CCN3 + CNC(=O)c1ccc(Nc2nc(OC3CCCC3)c3c(-c4ccc5nc(C)oc5c4)c[nH]c3n2)c(OC)c1 : its viability, T/C reads 83.1

----------
Give viability, T/C for every item shown.
# Test system: 628569-122-R-J1-PDC complex spheroid viability
# assay overview: Anticancer human tumor 628569-122-R-J1-PDC cell line growth inhibition [CLK];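 also: spheroids exposed to agents for seven days before readout; 100% = DMSO vehicle control viability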
# condition set: second compound 3.16 µM; first compound 0.0316 µM; stronger effect = lower value
State just the number; it will be interpreted in %.

Noted for CCCS(=O)(=O)Nc1ccc(F)c(C(=O)c2c[nH]c3ncc(-c4ccc(Cl)cc4)cc23)c1F + CN1CCN(c2cc(C(=O)Nc3cc4cc(-c5cnn(C)c5)ccc4cn3)ccn2)CC1 : its viability, T/C reads 5.86

Noted for CC(Nc1ccc2c(c1)OCCn1cc(N3C(=O)OCC3C(F)F)nc1-2)C(N)=O (centres undefined) + CNC(=O)c1ccc(Nc2nc(OC3CCCC3)c3c(-c4ccc5nc(C)oc5c4)c[nH]c3n2)c(OC)c1 : its viability, T/C reads 37.1

Noted for CC(Nc1ccc2c(c1)OCCn1cc(N3C(=O)OCC3C(F)F)nc1-2)C(N)=O (centres undefined) + CN1CCN(c2cc(C(=O)Nc3cc4cc(-c5cnn(C)c5)ccc4cn3)ccn2)CC1 : its viability, T/C reads 7.77

Noted for CCCS(=O)(=O)Nc1ccc(F)c(C(=O)c2c[nH]c3ncc(-c4ccc(Cl)cc4)cc23)c1F + CNC(=O)c1ccc(Nc2nc(OC3CCCC3)c3c(-c4ccc5nc(C)oc5c4)c[nH]c3n2)c(OC)c1 : its viability, T/C reads 43.9

Noted for C=CC(=O)N1CCN(c2nc(=O)n(-c3c(C)ccnc3C(C)C)c3nc(-c4c(O)cccc4F)c(F)cc23)C(C)C1 (centres undefined) + CNC(=O)c1ccc(Nc2nc(OC3CCCC3)c3c(-c4ccc5nc(C)oc5c4)c[nH]c3n2)c(OC)c1 : its viability, T/C reads 39.7

Noted for CC(=O)O[C@H]1C(=O)[C@@]2(C)[C@H]([C@H](OC(=O)c3ccccc3)[C@]3(O)C[C@H](OC(=O)[C@H](O)[C@@H](NC(=O)c4ccccc4)c4ccccc4)C(C)=C1C3(C)C)[C@]1(OC(C)=O)CO[C@@H]1C[C@@H]2O + CN1CCN(c2cc(C(=O)Nc3cc4cc(-c5cnn(C)c5)ccc4cn3)ccn2)CC1 : its viability, T/C reads 5.69

Noted for Nc1ccccc1NC(=O)c1ccc(CNC(=O)OCc2cccnc2)cc1 + CNC(=O)c1ccc(Nc2nc(OC3CCCC3)c3c(-c4ccc5nc(C)oc5c4)c[nH]c3n2)c(OC)c1 : its viability, T/C reads 44.6

Noted for C#Cc1c(F)ccc2cc(O)cc(-c3ncc4c(N5CC6CCC(C5)N6)nc(OCC56CCCN5CC(F)C6)nc4c3F)c12 (centres undefined) + CNC(=O)c1ccc(Nc2nc(OC3CCCC3)c3c(-c4ccc5nc(C)oc5c4)c[nH]c3n2)c(OC)c1 : its viability, T/C reads 51.6

Noted for COc1cccc2c1C(=O)c1c(O)c3c(c(O)c1C2=O)CC(O)(C(=O)CO)CC3OC1CC(N)C(O)C(C)O1 (centres undefined) + CN1CCN(c2cc(C(=O)Nc3cc4cc(-c5cnn(C)c5)ccc4cn3)ccn2)CC1 : its viability, T/C reads 10.7

Noted for Nc1ccccc1NC(=O)c1ccc(CNC(=O)OCc2cccnc2)cc1 + CN1CCN(c2cc(C(=O)Nc3cc4cc(-c5cnn(C)c5)ccc4cn3)ccn2)CC1 : its viability, T/C reads 7.85

Noted for CC1(C)CCC(CN2CCN(c3ccc(C(=O)NS(=O)(=O)c4ccc(NCC5CCOCC5)c([N+](=O)[O-])c4)c(Oc4cnc5[nH]ccc5c4)c3)CC2)=C(c2ccc(Cl)cc2)C1 + CN1CCN(c2cc(C(=O)Nc3cc4cc(-c5cnn(C)c5)ccc4cn3)ccn2)CC1 : its viability, T/C reads 8.81

Noted for CC1(C)CCC(CN2CCN(c3ccc(C(=O)NS(=O)(=O)c4ccc(NCC5CCOCC5)c([N+](=O)[O-])c4)c(Oc4cnc5[nH]ccc5c4)c3)CC2)=C(c2ccc(Cl)cc2)C1 + CNC(=O)c1ccc(Nc2nc(OC3CCCC3)c3c(-c4ccc5nc(C)oc5c4)c[nH]c3n2)c(OC)c1 : its viability, T/C reads 46.1

Noted for C=C(F)C(=O)N1CCN(c2nc(OCC3CCCN3C)nc3c2CCN(c2cccc4cccc(Cl)c24)C3)CC1CC#N (centres undefined) + CNC(=O)c1ccc(Nc2nc(OC3CCCC3)c3c(-c4ccc5nc(C)oc5c4)c[nH]c3n2)c(OC)c1 : its viability, T/C reads 46.2

Noted for O=c1[nH]cc(F)c(=O)[nH]1 + CNC(=O)c1ccc(Nc2nc(OC3CCCC3)c3c(-c4ccc5nc(C)oc5c4)c[nH]c3n2)c(OC)c1 : its viability, T/C reads 44.9

Noted for C=CC(=O)N1CCN(c2nc(=O)n(-c3c(C)ccnc3C(C)C)c3nc(-c4c(O)cccc4F)c(F)cc23)C(C)C1 (centres undefined) + CN1CCN(c2cc(C(=O)Nc3cc4cc(-c5cnn(C)c5)ccc4cn3)ccn2)CC1 : its viability, T/C reads 9.3

Noted for COc1c(OCCCN2CCOCC2)ccc2c3n(c(=NC(=O)c4cnc(N)nc4)nc12)CCN3 + CNC(=O)c1ccc(Nc2nc(OC3CCCC3)c3c(-c4ccc5nc(C)oc5c4)c[nH]c3n2)c(OC)c1 : its viability, T/C reads 27.4

Noted for CC1COCCN1c1cc(C2(S(C)(=N)=O)CC2)nc(-c2ccnc3[nH]ccc23)n1 (centres undefined) + CNC(=O)c1ccc(Nc2nc(OC3CCCC3)c3c(-c4ccc5nc(C)oc5c4)c[nH]c3n2)c(OC)c1 : its viability, T/C reads 44.1

Noted for COc1c(OCCCN2CCOCC2)ccc2c3n(c(=NC(=O)c4cnc(N)nc4)nc12)CCN3 + CN1CCN(c2cc(C(=O)Nc3cc4cc(-c5cnn(C)c5)ccc4cn3)ccn2)CC1 : its viability, T/C reads 8.53

Noted for CC1COCCN1c1cc(C2(S(C)(=N)=O)CC2)nc(-c2ccnc3[nH]ccc23)n1 (centres undefined) + CN1CCN(c2cc(C(=O)Nc3cc4cc(-c5cnn(C)c5)ccc4cn3)ccn2)CC1 : its viability, T/C reads 8.58
